Values were extracted from patent US8999956B2.

tested on: Alternaria solani; assay: In vivo preventive test on Alternaria solani (tomato); settings: 500 ppm of active ingredient, evaluated 7 days after inoculation
Class 1.0: Efficacy at least 90%. Class 0.0: Efficacy below 90%.

{"columns": ["molecule", "assigned.category"],
 "data": [
  ["CC(CCc1ccc(C(F)(F)F)cc1)NC(=O)c1c(C(F)F)nn(C)c1F (centres unmarked)", 1.0],
  ["CC(CCc1ccc(Cl)c(Cl)c1)N(C(=O)c1c(C(F)F)nn(C)c1Cl)C1CC1 (racemic)", 1.0],
  ["Cn1nc(C(F)F)c(C(=S)N(C[Si](C)(C)Cc2ccccc2Cl)C2CC2)c1F", 0.0],
  ["Cn1nc(C(F)F)c(C(=O)N(C[Si](C)(C)Cc2cccc(Cl)c2)C2CC2)c1Cl", 1.0],
  ["CCC(COc1cc(Cl)cc(Cl)c1)NC(=O)c1c(C(F)F)nn(C)c1F (racemic)", 1.0],
  ["CN(C(=O)c1c(C(F)F)nn(C)c1F)C(COc1ccccc1Cl)C1CC1 (racemic)", 0.0],
  ["CC(C)CCC1CCCCC1NC(=O)c1c(C(F)F)nn(C)c1F (centres unmarked)", 1.0],
  ["CC(COc1cc(Cl)ccc1Cl)NC(=O)c1c(C(F)F)nn(C)c1Cl (centres unmarked)", 1.0],
  ["CCC(C)C(C)N(C(=O)c1c(C(F)F)nn(C)c1Cl)C1CC1 (centres unmarked)", 0.0],
  ["CC(CNC(=O)c1c(C(F)F)nn(C)c1Cl)Cc1c(F)cccc1F (centres unmarked)", 0.0],
  ["CC(CCc1c(Cl)cccc1Cl)NC(=O)c1c(C(F)F)nn(C)c1F (centres unmarked)", 1.0],
  ["CN(CCCc1cc(Cl)ccc1Cl)C(=O)c1c(C(F)F)nn(C)c1F", 1.0]
]}
